System: BT-549 breast
Experiment: NCI tumour cell line growth inhibition, 48 h
Where a SMILES comes first, the peptide text is derived from it. [ ]: non-standard residue; d: D form. The star is where a group is joined. ξ: configuration not given here. ξPhe(4-NO2) = NC(Cc1ccc([N+](=O)[O-])cc1)C(=O)O; Boc = CC(C)(C)OC(=O)*; OBn = c1ccc(CO*)cc1
endpoint.label: TGI (µM)
The reply should be a number in µM, with the unit left off.

Which value of TGI has been reported for `CC(=O)n1nc(-c2nc3ccccc3nc2Cl)cc1Cl` in the records?
28.8

Item: `CCCC[P+](c1ccccc1)(c1ccccc1)c1ccccc1`
74.7

Moving on to the next compound: `O=C1/C(=C/c2ccc([N+](=O)[O-])s2)Oc2ccccc21`
1.98

Now consider CC12CCc3ccccc3C1=Nc1ccccc12 (stereo unspecified) .
95.6

Another compound to check: CC(=O)OCC1OC(n2c3c(c(-c4ccc(Cl)cc4)c(C#N)c2=S)C(=O)CC(C)(C)C3)C(OC(C)=O)C(OC(C)=O)C1OC(C)=O (stereo unspecified)
12.8

Entry to check: Cc1ccc(C2SCc3nc4ccc(C(=O)c5ccccc5)cc4n32)cc1 (stereo unspecified)
18.4

Would you kindly repeat that for `CN1CCN(Cc2ccc(NC(=O)c3[nH]ncc3Nc3ncnc4sccc34)cc2)CC1` ?
5.56

How about COc1ccc(C2C(c3ccccc3)C(=O)N2c2cc(OC)c(OC)c(OC)c2)cc1I (stereo unspecified) ?
5.36

Try `Cc1c2ncccc2nc2[nH]c3ccc(OCCN(C)C)cc3c12` next.
29.7

Now this one: `COc1cc(C)cc2c1C(=O)C(Br)=CC2=O`
23.2

Again, but for `CS(=O)(=O)OCCN(CCOS(C)(=O)=O)c1ccc(C=Nc2ccc3oc(=O)ccc3c2)cc1`
45.7

Here is the next compound: `COC(=O)c1c2c(c(C)[n+]([O-])c1C)C(=O)C(NCc1cccc(OC)c1)=CC2=O`
13.4

Try this compound next: `O=C(NCCN1CCOCC1)Nc1ccc(-c2cc3c(Nc4ccc(Oc5cccc(C(F)(F)F)c5)c(Cl)c4)ncnc3s2)cc1`
11.1

Can you check `Cc1[nH]nc2c1N=C(c1ccccc1F)c1cc(C#N)ccc1N2` next?
12.1

Lookup `CCOC(=O)c1c(C)n(CC(C)C)c2c1cc1oc(=O)c(=O)n3cnc2c13`
43

Query `CCOC(=O)N1C/C(=C/c2ccc(OC)cc2)C(=O)/C(=C/c2ccc(OC)cc2)C1` next
4.47

Same again, this time with CC(C)(C)OC(=O)NC(Cc1ccc([N+](=O)[O-])cc1)C(=O)NCC(=O)OCc1ccccc1 (stereo unspecified) (Boc-[ξPhe(4-NO2)]-Gly-OBn)
59.6

Now the same for `CCCCSCc1nc2nc(Cl)c(Cl)nc2[nH]1`
79.4

Repeat with CCCC(=O)NC(c1ccc2c(c1)OCO2)c1ccc2cccnc2c1O (stereo unspecified)
83.7

Another: `COc1cc(-c2nn(C(=O)NS(=O)(=O)c3ccc(C)cc3)cc2-c2ccncc2)ccc1Cl`
10.6

Same question, `Oc1ccc(Br)cc1/C=N/NC(=S)NC12CC3CC(CC(C3)C1)C2` this time
15.7

Query COc1ccccc1CNC(=O)C1c2ccccc2C(=O)N(CC(C)C)C1c1cccs1 (stereo unspecified) next
64.4

What do we get for O=C(CC1(O)C(=O)Nc2ccc(Br)cc21)c1ccc(C(=O)NCC2CCC3(CC2)OOC2(CCCCC2)OO3)cc1 (stereo unspecified) ?
32.7

====

System: SF-268 CNS
Assay: NCI tumour cell line growth inhibition, 48 h
Kindly supply the reported TGI values for the records listed here.

Report TGI for `O=C(/C=C/c1c(O)ccc2ccccc12)c1cccc2ccccc12` please.
> 100 µM

Try this molecule too: `CO/C(=N\N=C\c1ccc(OC)cc1OC)c1ccncc1`
> 10 µM

Ok, now `CC(=O)O[C@H]1C(=O)[C@@]2(C)[C@H]([C@H](OC(=O)c3ccc([N+](=O)[O-])cc3)[C@]3(O)C[C@H](OC(=O)[C@H](O)[C@@H](NC(=O)c4ccccc4)c4ccccc4)C(C)=C1C3(C)C)[C@]1(OC(C)=O)CO[C@@H]1C[C@@H]2O`
> 25 µM

Now consider `CCOC(=O)C1=C(O)c2ccccc2C(=O)C1=O` and answer again.
> 100 µM

====

Tested on: PC-3 prostate
Test: NCI tumour cell line growth inhibition, 48 h
Field: TGI. Provide a value for each of the molecules that follow.

What measured TGI goes with `COc1cc(-c2nc(SCC(=O)Nc3ccc(C(C)=O)cc3)[nH]c(=O)c2C#N)cc(OC)c1OC` ?
> 100 µM

And the next one, Cc1ccc(C2SCc3nc4ccc(C(=O)c5ccccc5)cc4n32)cc1 (stereo unspecified) ?
> 67.5 µM

Next molecule up: `CC1=NN2C(=O)CC(=O)N=C2S1`
> 100 µM

Now the molecule `COc1cccc(Cn2cc3c(c2)-c2oncc2CC3)c1`
> 100 µM

Could you do the same for COC1C=C(NCC2(CO)CCC2)NC(N)=N1 (stereo unspecified) , please?
> 100 µM

Same for `C=C1C(=O)O[C@H]2[C@H]1[C@H](OC(=O)/C(C)=C\C)C[C@]1(CO1)[C@@H]1[C@H](OC(C)=O)C=C(C)[C@]21O`
> 58.8 µM

Also `BrC(Br)(Br)c1cnc2ccccc2n1` , if possible.
9.89 µM

Can you handle `COc1cccc2c1cc([N+](=O)[O-])c1c(C(=O)O)cc3c(c12)OCO3` next?
> 100 µM

Ok, now CCOC(=O)c1cc(C2CCN(CC(C)CC)C2=S)c(C(=O)/C=C(/C)N)[nH]1 (stereo unspecified)
> 50 µM

Can you handle `O=C1C(Cl)=C(Nc2cccc(C(F)(F)F)c2)C(=O)N1Cc1ccccc1Cl` next?
18.2 µM

What about this molecule? O=C1NC(=O)C2(CCC(O)C2)c2cc[n+]([O-])cc21 (stereo unspecified)
> 100 µM

And what about the molecule `O=[N+]([O-])/C(Cl)=C(\Nc1ccccc1)C(Cl)=C(Cl)Cl` ?
> 100 µM

Also `O=C(Nc1cccc2cccnc12)c1ccc(N2C(=O)[C@@H]3[C@H](C2=O)[C@@H]2C=C[C@H]3C2)cc1` , if possible.
> 100 µM

Repeat with `O=C1Nc2ccccc2[C@]12C[C@H]2c1ccccn1`
> 100 µM

Proceed to Cc1ccc(S(=O)(=O)[N-]C2C(=O)c3ccccc3C(=O)C2[n+]2cccc(C(N)=O)c2)cc1 (stereo unspecified)
> 100 µM

And the next one, `C/C(=N\NC(=O)/C(C#N)=C\c1ccc(N(CCC#N)CCC#N)cc1)c1ccccc1` ?
> 10 µM

Consider next the molecule `CCCCCCNC(=O)Oc1ccc(/C(=C(\C)c2ccccc2)c2ccc(OCCN3CCCCC3)cc2)cc1` in the same way.
11.5 µM

Consider next the molecule `CC1(C)C=C(/C=N/Nc2ccc(Br)cc2)C(C#N)=C(O)C1(C#N)C#N` in the same way.
63.9 µM

Can you handle O=C1c2ccccc2C(=O)c2c(NCCNC(=O)C3CCCN3)ccc(NCCNC(=O)C3CCCN3)c21 (stereo unspecified) next?
> 100 µM

What do you have for `Cc1ccc(C)c(/C(=N\N=C(N)N)C2CC2)c1` ?
> 100 µM

Now the same for `CC(=N/NC(=S)Nc1c(C)n(C)n(-c2ccccc2)c1=O)/C(C)=N\NC(=S)Nc1c(C)n(C)n(-c2ccccc2)c1=O`
> 100 µM

Entry `c1ccc2c[n+](CCCCCCCCCC[n+]3ccc4ccccc4c3)ccc2c1` please
> 10 µM

Ok, now `NC(C(F)(F)F)(C(F)(F)F)P(=O)(c1ccccc1)c1ccccc1`
> 100 µM

Repeat with `Cc1[nH]n(-c2nc3c(c(=O)[nH]2)CCC3)c(=O)c1CCO`
> 100 µM

Also need `COc1ccc2nc3cc([N+](=O)[O-])ccc3c(NNc3ccc(Cl)cc3)c2c1` , thanks.
> 77.5 µM

What do you get for `CC[C@H](Nc1nc(N)nc(N)c1Cl)c1nc2cccc(NCc3ccc(C(=O)NO)cc3)c2c(=O)n1-c1ccccc1` ?
3.7 µM

Query `CN(C)c1ccc(/C=C2\N=C(N/N=C/c3ccccc3)NC2=O)cc1` next
> 100 µM

Try the molecule `Cn1cnc([N+](=O)[O-])c1SCC(=O)O`
> 100 µM

Now give it for O=C1C=CN(C2OC(CO)C(O)C2O)C(=O)C1 (stereo unspecified) too.
> 2500 µM

Same for `COC(C/C(=C/CO[Si](C(C)C)(C(C)C)C(C)C)C(=O)Nc1ccccc1I)OC`
62.2 µM

Now the molecule `OCCSCc1cc2c(O)c(c1)Cc1cc(CSCCO)cc(c1O)Cc1cc(CSCCO)cc(c1O)Cc1cc(CSCCO)cc(c1O)C2`
8.88 µM
